# Assay comment: Concentration of Compound 3 in rat plasma after i.v. liposome (LC/MS/MS)
# Assay type: in vivo, SD rat
# Experimental conditions: male, Sprague-Dawley, rat, plasma, iv, 40 mg/kg, SD rat plasma, i.v. liposome ([Lipid]=20 mg/mL, 2 ml/kg); animal 1
Test readout: AUC (µg·h/mL)
Return type: number; implicit unit µg·h/mL.

Lookup: // AUC lookup, key: CCCCCCCCCCCCCCCCOC(=O)CCC(NC(=O)C(CCCCNC(=O)C(N)CCC(=O)O)NC(=O)C(N)CCC(=O)O)C(=O)OCCCCCCCCCCCCCCCC (stereo not shown)
Found: 266

* * *

# Assay comment: Concentration of Compound 3 in rat plasma after i.v. liposome (LC/MS/MS)
# Type: in vivo, SD rat
# Experimental conditions: male, Sprague-Dawley, rat, plasma, iv, 40 mg/kg, SD rat, i.v. BSA-encapsulated pH-responsive liposome ([Lipid]=20 mg/mL, 2 ml/kg); 6 hr; animal 2; read-out: GGLG concentration in plasma
Test readout: concentration at 6 h (ng/mL)
Answer with a number only, understood to be in ng/mL.

Lookup: Looking for the measured concentration at 6 h of CCCCCCCCCCCCCCCCOC(=O)CCC(NC(=O)C(CCCCNC(=O)C(N)CCC(=O)O)NC(=O)C(N)CCC(=O)O)C(=O)OCCCCCCCCCCCCCCCC (stereo not shown) , can you help?
Found: 10200
